Experiment: Inhibition of Bocillin FL binding to PBP2 in Pseudomonas aeruginosa 27853 membranes
Some molecules, each annotated with its measured IC50.
A complete answer gives the number followed by the unit.

// below: answered molecules
The molecule C[C@@H](O)[C@H]1C(=O)N2C(C(=O)O)=C(S[C@@H]3CN[C@H](CNS(N)(=O)=O)C3)[C@H](C)[C@H]12 [DORIPENEM] showed IC50 equal to 0.04 µg/mL

The molecule C[C@@H](O)[C@H]1C(=O)N2C(C(=O)O)=C(S[C@@H]3CN[C@H](C(=O)N(C)C)C3)[C@H](C)[C@H]12 [MEROPENEM] showed IC50 equal to 0.06 µg/mL

The molecule CC(C)(O/N=C(\C(=O)N[C@@H]1C(=O)N2C(C(=O)[O-])=C(C[n+]3ccccc3)CS[C@H]12)c1csc(N)n1)C(=O)O [CEFTAZIDIME] showed IC50 equal to 4 µg/mL

The molecule C[C@@H](O)[C@H]1C(=O)N2C(C(=O)O)=C(SCCNC=N)C[C@H]12 [IMIPENEM ANHYDROUS] showed IC50 equal to 0.1 µg/mL

Field: next molecule
The molecule C[C@H]1[C@H](NC(=O)/C(=N\OC(C)(C)C(=O)O)c2csc(N)n2)C(=O)N1S(=O)(=O)O [AZTREONAM] showed IC50 equal to 4 µg/mL

The values you see were collected from ChEMBL document CHEMBL1255305.
